Data provenance is ChEMBL document CHEMBL1157420.

Experiment: Tmax in rat at 10 mg/kg, po
Assay type: ADME, organism-based
Set-up: dose 10 mg/kg, route oral
Conditions: in vivo
Reported Endpoint: Tmax (h)

>>> df
                            compound_string  reported_endpoint  meas_value
0  CC(C)(C)c1ccc(-c2nc3c(N4CCN(Cc5c[nH]c(=O)[nH]c5=O)CC4)cccc3[nH]2)cc1               Tmax         1.8

====

Measured IC50 values are reported for all entries that follow.
Molecular target: Gonadotropin-releasing hormone receptor (Homo sapiens)
Sequence (P30968 whole entry): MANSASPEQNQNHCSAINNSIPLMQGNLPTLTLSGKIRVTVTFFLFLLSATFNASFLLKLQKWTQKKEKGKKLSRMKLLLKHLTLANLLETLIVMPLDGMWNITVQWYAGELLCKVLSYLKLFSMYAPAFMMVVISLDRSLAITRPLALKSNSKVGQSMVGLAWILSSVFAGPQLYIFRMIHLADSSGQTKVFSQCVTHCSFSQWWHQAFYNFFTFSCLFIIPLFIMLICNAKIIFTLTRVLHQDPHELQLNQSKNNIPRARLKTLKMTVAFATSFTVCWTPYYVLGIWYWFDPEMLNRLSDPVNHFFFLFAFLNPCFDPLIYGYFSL
Experiment: Displacement of [125I]-(D-Trp6)LHRH from human recombinant GnRH receptor
Reported Endpoint: IC50 (µM)

>>> print(df.to_string())
                            compound_string  reported_endpoint  uom  meas_value
0  Cc1ccc(-c2nc3c(N4CCN(CCOc5cccc6[nH]c(=S)[nH]c56)CC4)cccc3[nH]2)cc1               IC50   µM         1.3
1  CC(C)(C)c1ccc(-c2nc3c(N4CCN(Cc5cccc6[nH]c(=O)[nH]c56)CC4)cccc3[nH]2)cc1               IC50   µM      0.0087
2  FC(F)(F)c1nc2c(N3CCN(CCOc4cccc5[nH]c(=S)[nH]c45)CC3)cccc2[nH]1               IC50   µM        0.79
3  CCc1ccc(-c2nc3c(N4CCN(CCOc5cccc6nc(C(F)(F)F)[nH]c56)CC4)cccc3[nH]2)cc1               IC50   µM        0.22
